Reported pIC50 values are given for each entry in this list.
Biological target: JAK3 (recombinant human kinase domain; h-jak3(810-1124)) (Homo sapiens, UniProt P52333)
Construct: h-jak3(810- 1124)-sf9-c; made in house; host or cells: Sf9 insect cells
Sequence (P52333 810-1124): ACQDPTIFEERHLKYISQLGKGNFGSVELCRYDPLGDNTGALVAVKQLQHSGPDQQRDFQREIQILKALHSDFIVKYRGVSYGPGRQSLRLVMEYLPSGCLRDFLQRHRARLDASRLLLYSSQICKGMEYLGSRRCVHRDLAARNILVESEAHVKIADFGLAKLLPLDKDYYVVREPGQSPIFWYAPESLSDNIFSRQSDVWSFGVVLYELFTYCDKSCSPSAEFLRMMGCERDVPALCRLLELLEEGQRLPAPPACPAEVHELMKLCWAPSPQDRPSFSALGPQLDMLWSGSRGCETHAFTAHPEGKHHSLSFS
Test: Determination of IC50 of Janus Kinase (JAK) inhibition: JAK3, radioactive end-point assay with 33P-ATP
Assay type: biochemical
Conditions: JAK3 kinase domain; ATP 1.5 uM, peptide 50 uM, 20 minutes, room temperature, 10% DMSO; read-out: Ic50 h-jak3(810-1124)-sf9-c:no additive
The scale used: pIC50 is minus the common logarithm of the concentration in molar units.

Reference set (5 entries):
CC(C)(C)[C@@H](CO)NC(=O)c1c[nH]c2ncc(C3CC3)nc12 = 6.46
CC(C)(O)C(C)(C)NC(=O)c1c[nH]c2ncc(C3CC3)nc12 = 7.39
C[C@H](NC(=O)c1c[nH]c2ncc(C3CC3)nc12)C(C)(C)CS(C)(=O)=O = 8.47
CC(C)NC(=O)c1c[nH]c2ncc(Oc3cccc4ccccc34)nc12 = 6.17
CCn1cc(-c2cnc3[nH]cc(C(=O)N[C@H](C)C(C)(C)O)c3n2)cn1 = 8.18

Can you share its pIC50? I mean this compound: N#CCNC(=O)c1c[nH]c2ncc(C3CC3)nc12
6.17

# iterate: C[C@H](NC(=O)c1c[nH]c2ncc(-c3ccc(C(=O)N4CC(CO)(CO)C4)s3)nc12)C(C)(C)C
9.89

# iterate: CC(C)NC(=O)c1c[nH]c2ncc(Oc3ccc4[nH]ccc4c3)nc12
6.64
